test: displacement of tritiated calcium acetylhomotaurinate from a preparation of rat brain section; type: binding; details: in vitro, displacement of titiated calcium acetylhomotaurinate

- compound: "CC(C)(C)C(=O)NCCCS(=O)(=O)O [Example 15]"
  unitSpec: "µM"
  IC50: 49.5
- compound: "CC(=O)NC(C)CCS(=O)(=O)O (centres unmarked) [Example 17]"
  unitSpec: "µM"
  IC50: 93
- compound: "CC(C)C(=O)NCCCS(=O)(=O)O [Example 3]"
  unitSpec: "µM"
  IC50: 28.9
- compound: "CC(C)CC(=O)NCCCS(=O)(=O)O [Example 14]"
  unitSpec: "µM"
  IC50: 42
- compound: "CC(C)(C)C(=O)NCCCS(=O)(=O)O [Example 1]"
  unitSpec: "µM"
  IC50: 46.9
